molecular target: N-terminal Xaa-Pro-Lys N-methyltransferase 1 (Homo sapiens); experiment: Primary qHTS for Inhibitors of N-terminal methyltransferase 1 (NTMT1): MTaseGlo Assay; settings: NTMT1 MTase-Glo SAH luminescence, purified enzyme; series mostly up to 114 µM; also: nearly all actives have a fitted effect of over 65% in size
The whole screen tested about 59,000 compounds, of which about 1,500 (2.5%) were called active. About 10% were inconclusive and are not listed. Calls follow the shape of the dose curve; as a rule, active = well fitted inhibition curve with a large enough effect; inconclusive = small, poorly fitted or top-dose-only effect; inactive = flat fitted curve, though single readings scatter. For the sample, actives were picked, then their nearest neighbours and some compounds at random.
Return exactly one item of active, inactive

Sample answers from the record:
Nc1ccc(C(=O)Nc2ccccc2N)cc1 ... inactive
N#Cc1c(N)nc(N)nc1N[C@H](c1nc2c(F)ccc(Cl)c2c(=O)n1-c1cccnc1)C1CC1 ... inactive
CCN(CC)CCNc1ncnc2c1cnn2-c1cc(Cl)ccc1C ... inactive
O=C(NC(c1ccco1)c1cc(Cl)c2cccnc2c1O)c1ccccc1 (stereo unspecified) ... inactive
Cc1cc(Nc2cc(C)c(C#N)c(NC(C)CCCC(C)(C)O)n2)n[nH]1 (stereo unspecified) ... inactive

[Q] In this assay, the call recorded for O=C(NCc1nnc(C(=O)Nc2ccc(C(F)(F)F)cc2Cl)o1)c1ccccc1 was what?
[A] inactive

[Q] In this assay, the call recorded for O=S(=O)(NCCCCCCNS(=O)(=O)c1c(F)cccc1F)c1ccc2c(c1)OCCO2 was what?
[A] inactive

###

molecular target: N-terminal Xaa-Pro-Lys N-methyltransferase 1 (Homo sapiens); test: Primary qHTS for Inhibitors of N-terminal methyltransferase 1 (NTMT1): MTaseGlo Assay; conditions: NTMT1 MTase-Glo SAH luminescence, purified enzyme; series mostly up to 114 µM; also: nearly all actives have a fitted effect of over 65% in size
Screen size: about 59,000 compounds; about 1,500 (2.5%) were called active. Another 10% or so got no clear call; they are omitted. Calls come from the whole dose curve; as a rule, active = well fitted inhibition curve with a large enough effect; inconclusive = small, poorly fitted or top-dose-only effect; inactive = flat fitted curve, though single readings scatter. This is one part of a sample in which actives are shown more often than they occur.
Return exactly one item of label 1 for active, label 0 for inactive

Sample answers from the record:
CCOC(=O)c1scc(-c2ccccc2)c1S(=O)(=O)Nc1ccccc1F ... label 0
Cc1nc(-c2ccccc2C(C)C)nc(NCc2ccc(-c3cccnc3)cc2)c1C ... label 0
Cc1ccc(OCCn2c(CCNC(=O)Cc3cccc4ccccc34)nc3ccccc32)cc1 ... label 0
COc1ccc(-c2nc3c(c(SCC(=O)Nc4ccc(C(=O)O)cc4)n2)Cc2ccccc2O3)cc1 ... label 1
Cc1cc(NC(=O)Nc2nnc(-c3ccncc3)s2)ccc1Cl ... label 0

Could you now consider this next molecule?
[Q] In this assay, the call recorded for Cc1cc(C)n2ncc(C(=O)Nc3ccc(C)c(C)c3)c2n1 was what?
[A] label 0

###

target: N-terminal Xaa-Pro-Lys N-methyltransferase 1 (Homo sapiens) (UniProt Q9BV86); experiment: Primary qHTS for Inhibitors of N-terminal methyltransferase 1 (NTMT1): MTaseGlo Assay; conditions: NTMT1 MTase-Glo SAH luminescence, purified enzyme; series mostly up to 114 µM; also: nearly all actives have a fitted effect of over 65% in size
Sequence (Q9BV86 whole entry, looked up): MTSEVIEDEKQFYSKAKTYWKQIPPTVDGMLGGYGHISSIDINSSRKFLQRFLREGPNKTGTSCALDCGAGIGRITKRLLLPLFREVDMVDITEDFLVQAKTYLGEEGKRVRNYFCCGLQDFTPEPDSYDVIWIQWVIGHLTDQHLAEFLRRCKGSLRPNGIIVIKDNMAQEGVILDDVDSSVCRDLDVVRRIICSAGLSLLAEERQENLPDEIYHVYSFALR
The campaign covered roughly 59,000 compounds. About 1,500 (2.5%) were called active. Roughly 10% stayed inconclusive and do not appear here. Calls come from the whole dose curve; as a rule, active = well fitted inhibition curve with a large enough effect; inconclusive = small, poorly fitted or top-dose-only effect; inactive = flat fitted curve, though single readings scatter. The sample as a whole holds a higher share of actives than the screen did.
Return exactly one item of 1.0 = active, 0.0 = inactive

[Q] In this assay, the call recorded for CCOc1cc(C(C)(C)C)ccc1C1=N[C@@](C)(c2ccc(Cl)cc2)[C@@](C)(c2ccc(Cl)cc2)N1C(=O)N1CCN(CC(=O)N2CCOCC2)CC1 was what?
[A] 0.0

[Q] In this assay, the call recorded for CN1C(=O)[C@@H](NC(=O)c2n[nH]c(Cc3ccccc3)n2)COc2ccccc21 was what?
[A] 0.0

[Q] In this assay, the call recorded for CC(C)(C)OC(=O)N1CCN(c2ccc(NCc3ccc4c(-c5ccc(F)cc5)cc(=O)oc4c3)cc2)CC1 was what?
[A] 0.0

[Q] In this assay, the call recorded for O=C(NCc1ccc(Cl)c(Cl)c1)Nc1nnc(-c2ccncc2)s1 was what?
[A] 0.0

[Q] In this assay, the call recorded for O=C(Nc1ccc(-c2ccc(Cl)c(Cl)c2)cc1)C1=C(O)c2ccccc2S(=O)(=O)N1 was what?
[A] 0.0

[Q] In this assay, the call recorded for COc1ccc(OCC(=O)Nc2cccc(C(=O)OCc3cc(=O)n4nc(C)sc4n3)c2)cc1 was what?
[A] 1.0
